Data credit: patent US20200339680A1

Record form. Attribute: MFI. Fill in for each entry.
- Assay system: T1, human TMEM106B (human, UniProt Q9NUM4 2-274)
- T1 construct: full-length, transiently expressed on HEK293 cells, or natively expressed on HeLa, U251 and A549 cells (the cell is named under assay); also the source of the Pepscan peptides; also called huTMEM106B; huTMEM
- Assay explanation: FACS A549;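 also: flow cytometry of cells incubated on ice for 1 h with hybridoma supernatant or purified antibody at 10 µg/mL, dead propidium iodide-positive cells gated out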
The answer is to be given in MFI; state only the numeric part.

For reference, reported MFI for TM-26 (antibody, V domains shown) VH: QVQLQQSGAELIRPGTSVKVSCKASGYAFTNYLIEWVKKRPGQGLEWIGVINPGSGITNYNEKFKGKATLTADKSSSTAYMQLSSLTSEDSAVYFCARSDFITTVVADYWGQGTTVTVSS VL: DIVVTQTPLSLPVSFGDQVSISCRSSQSLTNYYGNTYLSWYLHKPGQSPQLLIYGISNRFSGVPDRFSGSGSGTDFTLKISTIKPEDLGMYYCLQGTHQPRTFGGGTKLEIK stands at 952

// MFI lookup, binder = TM-50 (antibody, V domains shown, mouse IgG (hybridoma)) VH: QVQLKESGPVLVAPSQSLSITCTVSGFSLTNYGVHWVRQPPGKGLEWLGVIWAGGNTNYNSALMSRLSISKDNSKSQVFLKMNSLQTDDTAMYYCAKEAKLLRSYAMDYWGQGTLVTVSA VL: DVQMTQTTSSLSASLGDRVTISCRASQDINNYLYWYQQKPDGTVKLLIYYTSMLHSGVPSRFSGSGSGTDYSLTISNLEQEDIATYFCQQGSTLMYTFGGGTKLEIK , result: 580

Recorded MFI (binder TM-48 (antibody, V domains shown) VH: QVQLQQSGPELVKPGASVKLSCKASGYTFTSYDINWVKQRPGQGLEWIGWIYPRDGNTQYIEKLKGKATLTVDTSSSTAYMELHSLTSEDSAVYFCARWIFYAMDYWGQGTSVTVSS VL: DVLMTQTPLSLPVSLGNQASISCRSSQSIVHGNGNTYLEWYLQKPGQSPKLLIYKVSNRFSGVPDRFSGSGSGTDFTLKISRVEAEDLGVYYCFQGSHLPYTFGGGTKLEIK ): 677

Briefly, MFI measured for TM-18 (antibody, V domains shown) VH: EVRLQQSGPELVKPGASVKISCKTSGYTFTDYYMNWVKQSHGKSLEWIVNINPNNGDAFYNQKFKGKATLTVDKSSNTAYLDLRSLTSEDSAVYYCAREGQLRLRRVYAMDYWGQGTSVTVSS VL: DIVLAQSPASLAVSLGQRATISCRASKSVSISVYTYVHWYQQKPGQPPKLLIYLASNLESGVPARFSGSGSGTDFTLNIHPVEEEDAATYYCQHSRELPYTFGGGTKLEIK : 1490

Record TM-52 (antibody, V domains shown, mouse IgG (hybridoma)) VH: QVQLQQPGAELVKPGASVKLSCKASGYTFTNYWMHWVKQRPGQGLDWIGNIDPSDSETHYNQKFKDKATLTVDKVSSTAYMQLSSLTSEDSAVYYCARRGYYGRSPFAYWGQGTLVTVSA VL: ENVLTQSPAIMSASPGEKVTMTCSASSSVSYMHWYQQKSNTSPKLWIYDTSKLASGVPGRFSGSGSGNSYSLTISSAEAEDVATYYCFQGSGYPLTFGAGTKLELK , field MFI: 987
